- tgt: UniProtKB Q8VBV9
- Sequence (Q8VBV9 1-320): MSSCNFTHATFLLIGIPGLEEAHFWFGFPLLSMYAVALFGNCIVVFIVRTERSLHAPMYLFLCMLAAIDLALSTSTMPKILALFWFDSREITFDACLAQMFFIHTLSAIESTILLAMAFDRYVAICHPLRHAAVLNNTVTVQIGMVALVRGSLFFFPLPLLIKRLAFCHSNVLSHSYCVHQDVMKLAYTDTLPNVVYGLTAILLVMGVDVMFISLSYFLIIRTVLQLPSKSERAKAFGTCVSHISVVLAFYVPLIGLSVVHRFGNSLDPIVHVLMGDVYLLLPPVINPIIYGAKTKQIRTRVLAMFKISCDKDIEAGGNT
- assay-details: Luciferase dual reporter assay of Olfr78 expressed in HEK293T cells
- settings: heterologous expression in HEK293T cells, sodium salts, 2 hours stimulation; read-out: EC50 for activation of Olfr78
measure-name: pEC50
Scale explanation: pEC50 corresponds to minus log10 of a concentration expressed in moles per litre.

What value of measured pEC50 is listed for CC(O)C(=O)O (stereo not shown) [lactate, 2-hydroxypropanoic acid] ?
2.40
